experiment: Ratio of drug level in brain to plasma in p-gp-/- mouse at 3 mg/kg, po after 4 hrs; type: ADME, organism-based; parameters: dose 3 mg/kg, route oral; conditions: brain and plasma, read-out: BPR
MEASUREMENT LABEL: Kp at 4 h
Just the number, please.

Challenge: What value of Kp at 4 h has been reported for the following compound? FC(F)(F)Oc1ccc(CN2CCC3(CC2)OC(c2cc(Cl)ccn2)c2ccccc23)cc1 (stereo unspecified)
Response given: 1.9

----------
Give measured bioavailability for each item. Keep answers brief.
experiment: Oral bioavailability in C57BL/6 mouse at 2 mg/kg by LC/MS/MS analysis; assay type: ADME, organism-based; conditions: in vivo
Write down the numeric answer in % and omit the unit.

Challenge: Entry FC(F)(F)Oc1ccc(CN2CCC3(CC2)OC(c2cc(Cl)cc(Cl)c2)c2ccccc23)cc1 (centres undefined) has what bioavailability?
Response given: 53

Challenge: Request the reported bioavailability associated with [O-][n+]1ccc(Cl)cc1C1OC2(CCN(Cc3ccc(OC(F)(F)F)cc3)CC2)c2ccccc21 (single isomer, unassigned)
Response given: 72

Challenge: State the recorded bioavailability for this entry: FC(F)(F)Oc1ccc(CN2CCC3(CC2)OC(c2cc(Cl)ccn2)c2ccccc23)cc1 (centres undefined)
Response given: 35

Challenge: Given the molecule FC(F)(F)Oc1ccc(CN2CCC3(CC2)OC(c2cc(Cl)ccn2)c2cccnc23)cc1 (racemic) , what is its reported bioavailability?
Response given: 47

Where do these numbers come from? They come from ChEMBL document CHEMBL1949630.
